target: PKBα (Homo sapiens, UniProt P31749); assay: PKB kinase assay (P33-labeled ATP, peptide substrate, filter plate); conditions: PKBα enzyme (full length or kinase domain with pleckstrin domain deleted)
Sequence (P31749 118-480 limits assumed): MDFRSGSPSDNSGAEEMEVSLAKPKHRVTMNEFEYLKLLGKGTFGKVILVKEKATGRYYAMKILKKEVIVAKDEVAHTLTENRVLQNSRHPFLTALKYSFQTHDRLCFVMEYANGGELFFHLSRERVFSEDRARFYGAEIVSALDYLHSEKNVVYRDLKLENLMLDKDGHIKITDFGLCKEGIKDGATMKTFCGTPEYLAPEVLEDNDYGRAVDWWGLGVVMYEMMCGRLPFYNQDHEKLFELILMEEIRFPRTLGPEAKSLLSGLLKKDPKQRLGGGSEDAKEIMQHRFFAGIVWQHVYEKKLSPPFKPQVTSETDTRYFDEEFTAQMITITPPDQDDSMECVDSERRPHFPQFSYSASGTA
ASSAY_ENDPOINT: IC50

Reference set, count: 6
| COMPOUND | IC50 |
| --- | --- |
| COc1cc(C[C@H](N)CNc2ncc(-c3ccc4c(c3)CNC4=O)s2)cnc1C(F)(F)F [Example 238] | 50 to 1000 nM |
| N[C@H](CNc1nc(-c2cccc(F)c2)c(-c2ccc3cnccc3c2)s1)Cc1ccc(C(F)(F)F)cc1 [Example 103] | 50 to 1000 nM |
| C/C=C/[C@@H](c1ccc(C(F)(F)F)cc1)[C@H](N)CNc1ncc(-c2ccc3cnccc3c2)s1 [Example 154] | < 50 nM |
| COc1ccc(C[C@H](N)CNc2ncc(-c3ccc4c(c3)CC(=O)N4)s2)cc1 [Example 67] | 50 to 1000 nM |
| COC(=O)c1nc(NC[C@@H](N)Cc2ccc(C(F)(F)F)cc2)sc1-c1ccc2[nH]c(=O)oc2c1 [Example 124] | < 50 nM |
| C[C@H](Nc1ncc(-c2ccc3c(c2)CC(=O)N3)s1)[C@@H](N)Cc1ccc(C(F)(F)F)cc1 [Example 234] | 1000 to 10000 nM |

Could you now consider this next compound?
Query: IC50; subject: CCc1nc(NC[C@@H](N)Cc2ccc(C(F)(F)F)cc2)sc1-c1nc2ccncc2s1 [Example 23]
50 to 1000 nM
